STUDY TARGET: Serine/threonine-protein kinase pim-3 (Homo sapiens) (UniProt Q86V86);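 also: mean inhibition of PIM3 kinase activity, recorded in the GSK_PKIS screening set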
CONDITION DETAILS: at 0.1 µM

{"columns": ["STRUCTURE STRING", "UNITS SYMBOL", "inhibition"],
 "data": [
  ["Cc1c2ccc(N(C)c3ccnc(Nc4cccc(S(N)(=O)=O)c4)n3)cc2nn1C", "%", -1.16],
  ["COc1cc(Nc2ncc(-c3ccccc3)o2)cc(OC)c1", "%", 0.03],
  ["COc1ccccc1-c1cc(/C=C2\\C(=O)Nc3ncc(Br)cc32)cc(Br)c1O", "%", -1.67],
  ["CN1CCC(n2cnc(-c3ccc(F)cc3)c2-c2ccnc(NCCO)n2)CC1", "%", 1.55],
  ["Cc1nnc(-c2cccc(-c3ccc(C(=O)NCC4CC4)cc3)c2)o1", "%", 1.21],
  ["O=C1Nc2ccccc2/C1=C1\\CCc2cc(O)ccc21", "%", -1.28]
]}

* * *

STUDY TARGET: Fibroblast growth factor receptor 2 (Homo sapiens) (UniProt P21802);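 also: values are mean percent inhibition of FGFR2 kinase, measured within the GSK Published Kinase Inhibitor Set (PKIS) screening panel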
Sequence (P21802 22-821 limits assumed): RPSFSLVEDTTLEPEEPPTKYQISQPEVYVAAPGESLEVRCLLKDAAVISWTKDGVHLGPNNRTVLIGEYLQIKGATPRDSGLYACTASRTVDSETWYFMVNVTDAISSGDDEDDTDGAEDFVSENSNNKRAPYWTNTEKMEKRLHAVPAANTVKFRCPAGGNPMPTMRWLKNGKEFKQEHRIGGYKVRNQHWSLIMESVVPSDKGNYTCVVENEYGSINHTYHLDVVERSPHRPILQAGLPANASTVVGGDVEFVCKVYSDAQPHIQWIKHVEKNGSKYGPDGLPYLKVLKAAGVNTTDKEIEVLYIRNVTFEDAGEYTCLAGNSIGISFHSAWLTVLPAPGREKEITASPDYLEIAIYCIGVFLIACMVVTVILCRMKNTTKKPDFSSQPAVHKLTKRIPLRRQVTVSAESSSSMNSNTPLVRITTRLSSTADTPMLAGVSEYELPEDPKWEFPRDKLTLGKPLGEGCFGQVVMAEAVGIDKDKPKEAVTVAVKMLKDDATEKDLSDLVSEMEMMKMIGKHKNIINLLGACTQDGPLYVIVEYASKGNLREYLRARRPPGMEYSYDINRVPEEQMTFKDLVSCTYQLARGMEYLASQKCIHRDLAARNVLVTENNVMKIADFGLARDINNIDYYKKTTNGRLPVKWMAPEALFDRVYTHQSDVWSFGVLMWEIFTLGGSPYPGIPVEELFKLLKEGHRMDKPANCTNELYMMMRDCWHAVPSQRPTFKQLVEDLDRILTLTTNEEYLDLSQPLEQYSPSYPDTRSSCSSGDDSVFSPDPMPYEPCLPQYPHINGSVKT
CONDITION DETAILS: at 0.1 µM
Property: inhibition; scope: individual compounds
ASSAY READOUT: inhibition (%)

{"columns": ["STRUCTURE STRING", "RESULT"],
 "data": [
  ["Fc1cccc(COc2ccc(Nc3ncncc3C#Cc3ccccc3)cc2Cl)c1", 4.03],
  ["O=C(O[C@H]1CN[C@H](C#Cc2cc3ncnc(Nc4ccc5c(ccn5Cc5cc(F)ccc5F)c4)c3s2)C1)N1CCOCC1", 3.95],
  ["COc1ccccc1-c1cc(/C=C2\\C(=O)Nc3ncc(Br)cc32)cc(Br)c1O", 6.66],
  ["OCCCNc1nccc(-c2c(-c3ccc(F)cc3)nn3cc(C(F)(F)F)ccc23)n1", 0.64],
  ["CCS(=O)(=O)c1ccc(OC)c(Nc2ncc(-c3cccc(F)c3)o2)c1", 40.5]
]}

* * *

Listed here are compounds together with their documented inhibition.
STUDY TARGET: Protein kinase C beta type (Homo sapiens) (UniProt P05771);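 also: mean inhibition value, enzyme form tested was the PKC-beta1 splice variant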
Sequence (P05771 2-671 limits assumed): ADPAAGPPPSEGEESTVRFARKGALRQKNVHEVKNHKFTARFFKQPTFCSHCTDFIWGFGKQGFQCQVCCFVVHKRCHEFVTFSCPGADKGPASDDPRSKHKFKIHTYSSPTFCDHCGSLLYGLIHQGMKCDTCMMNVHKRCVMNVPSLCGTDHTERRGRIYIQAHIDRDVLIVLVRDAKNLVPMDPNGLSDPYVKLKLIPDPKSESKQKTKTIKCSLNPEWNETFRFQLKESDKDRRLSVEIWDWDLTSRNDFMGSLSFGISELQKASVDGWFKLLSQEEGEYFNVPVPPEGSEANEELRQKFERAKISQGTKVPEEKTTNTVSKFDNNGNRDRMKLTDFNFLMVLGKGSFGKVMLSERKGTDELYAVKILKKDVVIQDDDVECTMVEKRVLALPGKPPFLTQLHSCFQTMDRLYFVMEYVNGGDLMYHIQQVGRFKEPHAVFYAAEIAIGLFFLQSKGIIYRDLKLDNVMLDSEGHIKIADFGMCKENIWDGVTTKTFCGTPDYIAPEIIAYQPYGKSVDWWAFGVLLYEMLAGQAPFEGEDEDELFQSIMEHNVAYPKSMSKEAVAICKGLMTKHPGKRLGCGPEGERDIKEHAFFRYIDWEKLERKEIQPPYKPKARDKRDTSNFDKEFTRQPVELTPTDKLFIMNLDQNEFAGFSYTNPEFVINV
CONDITION DETAILS: at 1 µM
Description: GSK_PKIS: PKC-beta1 (splice variant) mean inhibition at 1 uM [Nanosyn]

{"columns": ["STRUCTURE STRING", "inhibition / %"],
 "data": [
  ["CS(=O)(=O)Nc1ccc(-c2ccc3c(NC(=O)C4CC4)n[nH]c3c2)cc1", 0.21],
  ["N#Cc1cccc(Nc2ncc(-c3ccccc3)o2)c1", 2.96],
  ["CCN1CCC(C(=O)Nc2n[nH]c3nnc(-c4cccc(F)c4F)cc23)CC1", -0.14],
  ["CC1(C)CC(n2cnc(-c3ccc(F)cc3)c2-c2ccnc(N)n2)CC(C)(C)N1", 3.35],
  ["O=C(O[C@H]1CN[C@H](C#Cc2cc3ncnc(Nc4ccc5c(cnn5Cc5ccccc5)c4)c3s2)C1)N1CCOCC1", -6.28],
  ["COc1ccccc1-c1cc(/C=C2\\C(=O)Nc3ncc(Br)cc32)cc(Br)c1O", 0.26]
]}

* * *

STUDY TARGET: Tyrosine-protein kinase ABL2 (Homo sapiens)
CONDITION DETAILS: at 1 µM
Description: GSK_PKIS: ARG mean inhibition at 1 uM [Nanosyn]
ASSAY READOUT: inhibition (%)

{"columns": ["COMPOUND", "ASSAY READOUT", "RESULT"],
 "data": [
  ["CCS(=O)(=O)c1ccc(OC)c(Nc2ncc(-c3cccc(C(C)=O)c3)o2)c1", "inhibition", 60.8],
  ["CC1=C(C(=O)Nc2ccc3[nH]ncc3c2)C(c2ccc(F)cc2)N=C(c2ccc(C(F)(F)F)nc2)N1 (stereo not given)", "inhibition", 8.41],
  ["CCOc1ccc2c(-c3ccnc(Nc4cc(OC)cc(C(F)(F)F)c4)n3)cnn2n1", "inhibition", 9.53],
  ["CCCNc1cccc(-n2ncc3c(N/N=C/c4ccncc4)ncnc32)c1", "inhibition", 61.9],
  ["COc1ccc(-c2nn3ncccc3c2-c2ccnc(Nc3ccc(F)c(F)c3)n2)cc1", "inhibition", 11.9],
  ["Cn1c(-c2nonc2N)nc2cnccc21", "inhibition", 7.75],
  ["NC(=O)c1ccc2c(-c3ccnc(NCCCO)n3)c(-c3ccc(F)cc3)nn2c1", "inhibition", 10.1],
  ["CS(=O)(=O)CCNCc1ccc(-c2ccc3ncnc(Nc4ccc(OCc5ccccc5)cc4)c3c2)o1", "inhibition", 4.87],
  ["O=C1Nc2ccccc2/C1=C1\\CCc2cc(O)ccc21", "inhibition", 9.37],
  ["O=C(O[C@H]1CN[C@H](C#Cc2cc3ncnc(Nc4ccc(OCc5cccc(F)c5)c(Cl)c4)c3s2)C1)N1CCOCC1", "inhibition", 0.68],
  ["FC(F)(F)CNc1nccc(-c2cnn3ncccc23)n1", "inhibition", 3.29],
  ["NS(=O)(=O)c1cccc(N/C=C2\\C(=O)Nc3ccccc32)c1", "inhibition", 13.3],
  ["Cc1cc(O)cc(C)c1/C=C/c1cncc(C(=O)OC(C)(C)C)c1", "inhibition", 36.2],
  ["NS(=O)(=O)c1ccc(N/N=C2\\C(=O)Nc3ccc(C(=O)NCc4ccncc4)cc32)cc1", "inhibition", 9.41],
  ["COC(=O)Nc1nc2ccc(Oc3ccc(NC(=O)Nc4cc(C(F)(F)F)ccc4F)cc3)cc2s1", "inhibition", 73.6]
]}

* * *

STUDY TARGET: Serine/threonine-protein kinase D1 (Homo sapiens) (UniProt Q15139);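 also: values given as mean inhibition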
Sequence (whole entry): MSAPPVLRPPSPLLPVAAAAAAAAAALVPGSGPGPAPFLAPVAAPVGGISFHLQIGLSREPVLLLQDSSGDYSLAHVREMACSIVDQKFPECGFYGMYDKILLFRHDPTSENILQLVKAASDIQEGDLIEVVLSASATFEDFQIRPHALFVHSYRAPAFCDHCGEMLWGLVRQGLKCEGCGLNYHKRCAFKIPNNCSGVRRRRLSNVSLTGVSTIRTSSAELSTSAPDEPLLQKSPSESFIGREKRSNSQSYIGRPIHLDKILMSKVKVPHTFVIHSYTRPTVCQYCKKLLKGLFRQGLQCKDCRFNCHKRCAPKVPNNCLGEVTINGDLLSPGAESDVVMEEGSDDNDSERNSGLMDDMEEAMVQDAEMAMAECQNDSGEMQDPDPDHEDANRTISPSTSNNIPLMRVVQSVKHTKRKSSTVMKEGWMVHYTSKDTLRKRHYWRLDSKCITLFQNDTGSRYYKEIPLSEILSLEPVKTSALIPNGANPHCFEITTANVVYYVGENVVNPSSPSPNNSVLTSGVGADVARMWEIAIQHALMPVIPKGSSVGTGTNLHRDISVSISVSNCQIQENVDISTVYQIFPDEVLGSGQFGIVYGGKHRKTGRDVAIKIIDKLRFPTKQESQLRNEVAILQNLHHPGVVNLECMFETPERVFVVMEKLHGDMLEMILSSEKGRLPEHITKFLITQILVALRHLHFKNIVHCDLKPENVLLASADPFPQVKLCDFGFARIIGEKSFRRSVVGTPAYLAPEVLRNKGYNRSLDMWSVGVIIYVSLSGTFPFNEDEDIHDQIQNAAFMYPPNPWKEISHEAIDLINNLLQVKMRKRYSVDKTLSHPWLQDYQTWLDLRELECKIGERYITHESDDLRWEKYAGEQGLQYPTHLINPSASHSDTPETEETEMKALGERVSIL
CONDITION DETAILS: at 0.1 µM

{"columns": ["COMPOUND", "inhibition / %"],
 "data": [
  ["CC1=C(C(=O)Nc2ccc3[nH]nc(C)c3c2)C(c2ccc(C(F)(F)F)cc2)CC(=O)N1 (configuration not stated)", 2.86],
  ["N#Cc1cccc(Nc2ncc(-c3ccccc3)o2)c1", 5.32],
  ["CN(C)CCNC(=O)Nc1ccc(N(C)c2ccnc(Nc3ccc(CS(C)(=O)=O)cc3)n2)cc1", 3.85],
  ["O=C1Nc2ccccc2/C1=C1\\CCc2cc(O)ccc21", 5.09],
  ["CCS(=O)(=O)c1ccc(OC)c(Nc2ncc(-c3cccc(C(C)=O)c3)o2)c1", 2.32],
  ["CS(=O)(=O)Nc1ccc(-c2ccc3c(NC(=O)C4CC4)n[nH]c3c2)cc1", 2.7],
  ["NC(=O)c1ccc2c(-c3ccnc(NCCCO)n3)c(-c3ccc(F)cc3)nn2c1", 6.13],
  ["COc1ccccc1-c1cc(/C=C2\\C(=O)Nc3ncc(Br)cc32)cc(Br)c1O", 3.57],
  ["CC1(C)CC(n2cnc(-c3ccc(F)cc3)c2-c2ccnc(N)n2)CC(C)(C)N1", 0.74],
  ["COC(=O)Nc1nc2cc(Oc3ccc(NC(=O)Nc4ccccc4)cc3)ccc2[nH]1", 2.86],
  ["CCOc1ccc2c(-c3ccnc(Nc4cc(OC)cc(C(F)(F)F)c4)n3)cnn2n1", 0.73],
  ["Cc1cc(O)cc(C)c1/C=C/c1cncc(C(N)=O)c1", 2.25]
]}

* * *

A collection of molecules and their measured inhibition
STUDY TARGET: cGMP-dependent protein kinase 1 (Homo sapiens) (UniProt Q13976);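 also: listed percent inhibition of PRKG1 is a mean value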
Sequence (whole entry): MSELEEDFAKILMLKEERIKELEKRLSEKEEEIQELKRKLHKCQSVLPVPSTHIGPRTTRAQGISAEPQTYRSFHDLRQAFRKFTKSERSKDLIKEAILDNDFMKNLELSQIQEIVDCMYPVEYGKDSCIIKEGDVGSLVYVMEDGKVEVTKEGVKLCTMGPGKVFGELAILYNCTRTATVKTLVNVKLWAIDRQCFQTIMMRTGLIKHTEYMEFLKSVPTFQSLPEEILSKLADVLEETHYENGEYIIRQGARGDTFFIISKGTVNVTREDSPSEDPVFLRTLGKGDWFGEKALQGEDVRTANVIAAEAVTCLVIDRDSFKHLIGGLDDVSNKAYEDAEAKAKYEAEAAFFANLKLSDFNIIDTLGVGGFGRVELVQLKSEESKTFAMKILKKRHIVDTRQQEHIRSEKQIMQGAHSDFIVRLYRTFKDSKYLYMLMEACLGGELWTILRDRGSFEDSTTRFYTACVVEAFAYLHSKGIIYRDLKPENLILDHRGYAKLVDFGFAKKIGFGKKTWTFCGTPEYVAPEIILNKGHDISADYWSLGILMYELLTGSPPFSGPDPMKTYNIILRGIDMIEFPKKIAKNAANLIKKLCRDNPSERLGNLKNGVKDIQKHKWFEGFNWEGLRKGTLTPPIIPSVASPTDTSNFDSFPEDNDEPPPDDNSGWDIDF
CONDITION DETAILS: at 1 µM

{"columns": ["STRUCTURE STRING", "inhibition [%]"],
 "data": [
  ["COc1cccc(Nc2nccc(-c3cnn4ncccc34)n2)c1", 37.6],
  ["Cc1ccc(-c2cc3c(NC(=O)C4CC4)ncnc3o2)cc1", 5.54],
  ["COc1cc(N2CCN(C(C)C)CC2)ccc1Nc1nc(Nc2cccc3ncccc23)c2cc[nH]c2n1", 2.36],
  ["CS(=O)(=O)CCNCc1ccc(-c2ccc3ncnc(Nc4ccc(OCc5cccc(C(F)(F)F)c5)cc4)c3c2)o1", 4.77],
  ["COc1cc2c(cc1Nc1nc(Nc3cccc(F)c3C(N)=O)c3cc[nH]c3n1)N(C(=O)CN1CCN(C(C)C)CC1)CC2", 10.1],
  ["N#Cc1cccc(Nc2ncc(-c3ccccc3)o2)c1", 3.32],
  ["COc1cccc(-n2ncc3c(N/N=C/c4ccc(C(=O)NCCN(C)C)cc4)ncnc32)c1", 1.97],
  ["CNC(=O)c1sc(-n2cnc3cc(OC)c(OC)cc32)cc1OCc1ccccc1C(F)(F)F", 2.12],
  ["CC(C)c1ccc(-c2cc(-c3c[nH]nc3-c3ccccn3)ccn2)cc1", 2.34],
  ["Cc1c2ccc(N(C)c3ccnc(Nc4cccc(S(N)(=O)=O)c4)n3)cc2nn1C", 5.31]
]}
